Data credit: PubChem BioAssay AID1918932

Tested on: 171881-019-R-J1-PDC complex spheroid viability;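 note: spheroids exposed to agents for 7 days after 3 days growth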
Experiment: Anticancer human tumor 171881-019-R-J1-PDC patient-derived invasive breast carcinoma cell line growth inhibition
Conditions: second compound 10 µM; first compound 0.01 µM; stronger effect = lower value
Description: Multicellular complex tumor spheroid response to LSD1 Inhibitor Iadademstat in combination with a variety of drugs and investigational agents in selected tumor cell lines The current study was undertaken to assess response to LSD1 inhibitors in combination with standard-of-care drugs and investigational agents in solid tumor complex spheroid models as well as in the K-562 leukemia. […] Compounds. […] If the clinical Cmax for an agent had not been determined, the highest concentration tested was 10 microM. […]
reported endpoint: viability, T/C (%)

>>> experimental_value("Nc1ncn(C2CC(O)C(CO)O2)c(=O)n1 (centres undefined) + NC1CCC(NC2CC2c2ccccc2)CC1")
105
>>> experimental_value("CC(C)CC(NC(=O)C(Cc1ccccc1)NC(=O)c1cnccn1)B(O)O (centres undefined) + NC1CC1c1ccc(-c2cccc(O)c2)cc1")
3.61
>>> experimental_value("O=C(C=Cn1cnc(-c2cc(C(F)(F)F)cc(C(F)(F)F)c2)n1)NNc1cnccn1 + NC1CCC(NC2CC2c2ccccc2)CC1")
17.3
>>> experimental_value("COc1cc(Nc2ncc3c(n2)-c2ccc(Cl)cc2C(c2c(F)cccc2OC)=NC3)ccc1C(=O)O + NC1CCC(NC2CC2c2ccccc2)CC1")
111
